# Tested on: EW-22 (Ewing's Sarcoma)
# assay-notes: Bliss excess, mean over the matrix (fraction); higher = more synergy;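 also: after 72 h of two-drug dosing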
Output: class label from Bliss excess. Mapping: low class (below -0.02), middle class (-0.02 to below 0.006), high class (0.006 or more)

# molecule, system-name, class-name
rows = [
    ("CN(C)CCCOc1ccc(-c2ccc3ncc4c(c3c2)n(C2CCOCC2)c(=O)n4C)cn1 [AZD0156] + C[C@@H]1COCCN1C2=NC(=NC(=C2)C3(CC3)[S@](=N)(=O)C)C4=C5C=CNC5=NC=C4 [AZD6738] (first compound max 1 µM, 7x7, partner max 10 µM)", "EW-22 (Ewing's Sarcoma)", "high class"),
    ("CN(C)CCCOc1ccc(-c2ccc3ncc4c(c3c2)n(C2CCOCC2)c(=O)n4C)cn1 [AZD0156] + CCN(CCO)CCCOc1ccc2c(Nc3cc(CC(=O)Nc4cccc(F)c4)[nH]n3)ncnc2c1 [AZD2811] (first compound max 1 µM, 7x7, partner max 1 µM)", "EW-22 (Ewing's Sarcoma)", "middle class"),
    ("Cc1c2c(nn1C)CSCc1cc(n(C)n1)CSc1cc(c3ccccc3c1)OCCCc1c(C(=O)O)n(C)c3c-2c(Cl)ccc13 [AZD5991] + CC1(C)CCC(CN2CCN(c3ccc(C(=O)NS(=O)(=O)c4ccc(NCC5CCOCC5)c([N+](=O)[O-])c4)c(Oc4cnc5[nH]ccc5c4)c3)CC2)=C(c2ccc(Cl)cc2)C1 [Venetoclax] (first compound max 1 µM, 7x7, partner max 1 µM)", "EW-22 (Ewing's Sarcoma)", "high class"),
]

Given Cc1c2c(nn1C)CSCc1cc(n(C)n1)CSc1cc(c3ccccc3c1)OCCCc1c(C(=O)O)n(C)c3c-2c(Cl)ccc13 [AZD5991] + CC(=O)O[C@H]1C(=O)[C@@]2(C)[C@H]([C@H](OC(=O)c3ccccc3)[C@]3(O)C[C@H](OC(=O)[C@H](O)[C@@H](NC(=O)c4ccccc4)c4ccccc4)C(C)=C1C3(C)C)[C@]1(OC(C)=O)CO[C@@H]1C[C@@H]2O [Paclitaxel] (first compound max 1 µM, 7x7, partner max 3 µM) , name the class its Bliss excess places it in.
middle class

Quick one: CC(=O)c1c(C)c2cnc(Nc3ccc(N4CCNCC4)cn3)nc2n(C2CCCC2)c1=O [Palbociclib] + Cc1c2c(nn1C)CSCc1cc(n(C)n1)CSc1cc(c3ccccc3c1)OCCCc1c(C(=O)O)n(C)c3c-2c(Cl)ccc13 [AZD5991] (first compound max 10 µM, 7x7, partner max 1 µM)
middle class

Quick one: N#Cc1cnc(Nc2cc(NC[C@H]3CNCCO3)c(C(F)(F)F)cn2)cn1 [SRA737] + CCc1c2c(nc3ccc(O)cc13)-c1cc3c(c(=O)n1C2)COC(=O)[C@]3(O)CC [SN-38] (first compound max 10 µM, 7x7, partner max 0.3 µM)
low class

Quick one: COc1nnc2ccc(N3CCC(c4ccc(OCCN5CCN(C)C(=O)[C@H]5C)cc4)CC3)nn12 [AZD5153] + Cc1c2c(nn1C)CSCc1cc(n(C)n1)CSc1cc(c3ccccc3c1)OCCCc1c(C(=O)O)n(C)c3c-2c(Cl)ccc13 [AZD5991] (first compound max 1 µM, 7x7, partner max 1 µM)
high class

----------
Answer each item with its documented Bliss excess.
# Tested on: CAL-39 (Other Solid Carcinomas)
# assay-notes: Bliss excess, mean over the matrix (fraction); higher = more synergy
Give bare numbers.

# compound, numeric-readout
measured = [
    ("N#Cc1cnc(Nc2cc(NC[C@H]3CNCCO3)c(C(F)(F)F)cn2)cn1 [SRA737] + C=CCn1c(=O)c2cnc(Nc3ccc(N4CCN(C)CC4)cc3)nc2n1-c1cccc(C(C)(C)O)n1 [AZD1775] (first compound max 10 µM, partner max 1 µM)", -0.0255),
]

Query: Bliss excess; subject: CN(CCO)CC[C@H](CSc1ccccc1)Nc1ccc(S(=O)(=O)NC(=O)c2ccc(N3CCC([C@@H](O)c4ccccc4-c4ccc(Cl)cc4)CC3)cc2)cc1S(=O)(=O)C(F)(F)F [AZD4320] + CCN(CCO)CCCOc1ccc2c(Nc3cc(CC(=O)Nc4cccc(F)c4)[nH]n3)ncnc2c1 [AZD2811] (first compound max 1 µM, 7x7, partner max 1 µM)
0.0236
